# Assayed target: VLA-4 (Homo sapiens, UniProt P05556+P13612)
# Sequence (P13612 34-1032): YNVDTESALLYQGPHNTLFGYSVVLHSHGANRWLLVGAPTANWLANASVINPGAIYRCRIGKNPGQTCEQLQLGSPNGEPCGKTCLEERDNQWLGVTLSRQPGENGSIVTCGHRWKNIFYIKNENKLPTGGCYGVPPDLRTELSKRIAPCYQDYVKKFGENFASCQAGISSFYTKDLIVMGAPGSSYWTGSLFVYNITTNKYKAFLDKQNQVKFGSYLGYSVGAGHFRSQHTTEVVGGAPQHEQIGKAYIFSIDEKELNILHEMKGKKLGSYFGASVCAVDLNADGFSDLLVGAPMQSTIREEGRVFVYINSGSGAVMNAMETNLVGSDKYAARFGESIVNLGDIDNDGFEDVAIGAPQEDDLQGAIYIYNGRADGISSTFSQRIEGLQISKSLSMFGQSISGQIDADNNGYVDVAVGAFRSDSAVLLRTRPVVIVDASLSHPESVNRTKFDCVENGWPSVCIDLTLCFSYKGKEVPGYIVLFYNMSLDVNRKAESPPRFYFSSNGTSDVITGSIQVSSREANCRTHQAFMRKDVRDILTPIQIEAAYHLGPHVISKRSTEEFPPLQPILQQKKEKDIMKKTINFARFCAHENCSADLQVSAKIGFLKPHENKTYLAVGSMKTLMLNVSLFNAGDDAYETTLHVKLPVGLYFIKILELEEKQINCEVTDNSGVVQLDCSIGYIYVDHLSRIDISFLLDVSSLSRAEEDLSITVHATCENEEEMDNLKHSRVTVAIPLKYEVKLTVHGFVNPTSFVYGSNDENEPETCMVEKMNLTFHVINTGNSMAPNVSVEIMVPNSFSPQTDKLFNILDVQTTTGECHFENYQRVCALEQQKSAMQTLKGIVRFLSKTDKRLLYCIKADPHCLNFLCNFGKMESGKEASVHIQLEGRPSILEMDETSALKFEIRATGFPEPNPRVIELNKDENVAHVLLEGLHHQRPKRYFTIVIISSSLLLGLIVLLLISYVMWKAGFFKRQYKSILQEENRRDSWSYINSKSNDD
# Sequence (P05556 21-798): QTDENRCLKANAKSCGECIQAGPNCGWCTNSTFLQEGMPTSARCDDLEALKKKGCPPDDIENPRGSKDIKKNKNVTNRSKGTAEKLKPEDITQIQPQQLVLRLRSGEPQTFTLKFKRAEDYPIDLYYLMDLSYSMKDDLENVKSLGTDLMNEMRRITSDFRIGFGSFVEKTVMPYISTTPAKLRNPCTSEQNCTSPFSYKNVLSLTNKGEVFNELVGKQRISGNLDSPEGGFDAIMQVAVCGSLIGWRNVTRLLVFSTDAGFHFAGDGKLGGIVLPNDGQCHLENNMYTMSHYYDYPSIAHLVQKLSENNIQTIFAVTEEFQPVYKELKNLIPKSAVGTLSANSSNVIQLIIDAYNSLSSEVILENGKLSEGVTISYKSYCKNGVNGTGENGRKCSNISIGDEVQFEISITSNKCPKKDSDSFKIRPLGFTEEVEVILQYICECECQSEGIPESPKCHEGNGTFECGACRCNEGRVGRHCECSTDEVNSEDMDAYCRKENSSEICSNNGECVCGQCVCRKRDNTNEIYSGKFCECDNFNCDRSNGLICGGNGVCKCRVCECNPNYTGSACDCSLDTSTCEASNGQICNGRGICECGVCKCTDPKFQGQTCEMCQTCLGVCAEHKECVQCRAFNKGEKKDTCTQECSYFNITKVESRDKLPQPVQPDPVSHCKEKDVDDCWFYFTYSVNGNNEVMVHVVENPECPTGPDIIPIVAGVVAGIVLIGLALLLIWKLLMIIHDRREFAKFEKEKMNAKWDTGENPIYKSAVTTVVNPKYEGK
# Test name: cell-based
# Type: cell-based
# Design: host or cells: Jurkat (human T lymphoblastic line)
Square brackets hold non-standard residues; d marks the D form. Peptide text beside a SMILES is read from it. * marks the point of attachment. Biotin = O=C1N[C@H]2[C@H](CS[C@H]2CCCCC(=O)*)N1; Acetyl(3-pyridyl) = O=C(Cc1cccnc1)*; Piperidide = C1CCN(*)CC1; X14 = O=C(c1cc[nH]n1)*; Ahx = NCCCCCC(=O)O
I would appreciate it if you labelled entries label 1 when RELATIVE POTENCY (relative peptide inhibition of VLA-4 binding CS-1) is 3 or higher, otherwise label 0.

Molecule	Category
CC(C)C[C@H](NC(=O)c1cccnc1)C(=O)N[C@@H](CC(=O)O)C(=O)N[C@H](C(=O)N1CCC[C@@H]1C(N)=O)C(C)C [X L D V p pyridine-3-carbonyl amide]	label 1
CC[C@H](C)[C@H](N)C(=O)N[C@@H](CC(C)C)C(=O)N[C@@H](CC(=O)O)C(=O)N[C@H](C(=O)N1CCC[C@H]1C(=O)N[C@H](C(=O)N[C@@H](CC(C)C)C(=O)N[C@@H](CC(=O)O)C(=O)N[C@H](C(=O)N1CCC[C@H]1C(N)=O)C(C)C)[C@@H](C)CC)C(C)C [I L D V P I L D V P free amine amide] (H-ILDVPILDVP-NH2)	label 0
CC(C)C[C@H](NC(=O)Cc1cccnc1)C(=O)N[C@@H](CC(=O)O)C(=O)N[C@@H](Cc1ccccc1)C(=O)N1CCC[C@@H]1C(N)=O [X L D F p pyridine-3-acetyl amide] ({Acetyl(3-pyridyl)}-LDF[dP]-NH2)	label 1
CC(C)C[C@H](NC(=O)c1cc[nH]n1)C(=O)N[C@@H](CC(=O)O)C(=O)N[C@@H](Cc1ccccc1)C(=O)N1CCC[C@@H]1C(N)=O [X L D F p pyrazolecarbonyl amide] (X14-LDF[dP]-NH2; N-terminus assumed)	label 1
CC(C)C[C@H](NC(=O)c1cccc2ccccc12)C(=O)N[C@@H](CC(=O)O)C(=O)N[C@H](C(=O)N1CCC[C@@H]1C(N)=O)C(C)C [X L D V p 1-naphthoyl amide]	label 0
CC(C)C[C@H](NC(=O)[C@H](Cc1ccccc1)NC(=O)CCCCCNC(=O)CCCC[C@@H]1SC[C@@H]2NC(=O)N[C@@H]21)C(=O)N[C@@H](CC(=O)O)C(=O)N[C@@H](Cc1ccccc1)C(=O)N1CCC[C@@H]1C(N)=O [B Z F L D F p] ({Biotin-Ahx}-FLDF[dP]-NH2)	label 1
CC(C)C[C@@H](C(=O)N[C@@H](CC(=O)O)C(=O)N[C@@H](Cc1ccccc1)C(=O)N1CCCCC1)N1C(=O)NC(c2ccccc2)C1=O (stereo partly drawn)	label 1
CC(C)C[C@H](N)C(=O)N[C@@H](CC(=O)O)C(=O)N[C@@H](Cc1ccccc1)C(=O)N1CCCCC1 [L D F Z free amine piperidinamide] (H-Leu-Asp-Phe-Piperidide)	label 0
